Recorded EC50, one value per entry.
Target: human sphingosine-1-phosphate 1 receptor (S1P1 receptor) (Homo sapiens, UniProt P21453)
Sequence (P21453 whole entry): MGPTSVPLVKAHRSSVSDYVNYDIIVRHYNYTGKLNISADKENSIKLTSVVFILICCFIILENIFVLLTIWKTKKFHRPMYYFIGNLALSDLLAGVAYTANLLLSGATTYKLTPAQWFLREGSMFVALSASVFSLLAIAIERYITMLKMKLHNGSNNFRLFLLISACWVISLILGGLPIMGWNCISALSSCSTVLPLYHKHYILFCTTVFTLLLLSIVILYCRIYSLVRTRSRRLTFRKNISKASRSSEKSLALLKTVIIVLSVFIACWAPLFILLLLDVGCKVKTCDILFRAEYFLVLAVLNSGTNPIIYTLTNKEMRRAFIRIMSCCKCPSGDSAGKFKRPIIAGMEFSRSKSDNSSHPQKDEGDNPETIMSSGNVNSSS
Test: Ca2+ inducing ability (calcium increase, Calcium 5 assay kit) in CHO cells overexpressing human S1P1 receptor
Report the figure in µM without appending any unit label.

Below, each entry is followed by its recorded EC50 result.
| compound | EC50, µM |
| --- | --- |
| CC(C)n1nc(C(F)(F)F)c2cc(COc3ccc4c(c3)OCC(CN3CCC(C(=O)O)CC3)=C4)ccc21 [Example 13] | 0.0174 |
| CC(C)Cn1nc(Cl)c2cc(COc3cc(F)c4c(c3)OCC(CN3CCC(C(=O)O)CC3)=C4)ccc21 [Example 20] | 0.00513 |
| CC(C)n1nc(Cl)c2cc(COc3cc(F)c4c(c3)OCC(CN3CCC(C(=O)O)CC3)=C4)ccc21 [Example 12] | 0.0144 |
| CC(C)n1nc(Cl)c2cc(COc3ccc4c(c3)OCC(CN3CCC[C@H](C(=O)O)C3)=C4)ccc21 [Example 6] | 0.0129 |

State its EC50 for this compound: O=C(O)C1CCN(CC2=Cc3ccc(OCc4ccc5c(c4)c(Cl)nn5CC4CC4)cc3OC2)CC1 [Example 18]
0.0646

State its EC50 for this compound: CC(C)n1nc(Cl)c2cc(COc3ccc4c(c3)OCC(CN3CC(C(=O)O)C3)=C4)ccc21 [Example 2]
0.00209

State its EC50 for this compound: CC(C)Cn1nc(Cl)c2cc(COc3cc(F)c4c(c3)OCC(CN3CCCC(C(=O)O)CC3)=C4)ccc21 (stereo not shown) [Example 21]
0.0144

* * *

Recorded pEC50, one value per entry.
Target: human sphingosine-1-phosphate 1 receptor (S1P1 receptor) (Homo sapiens)
Test: Ca2+ inducing ability (calcium increase, Calcium 5 assay kit) in CHO cells overexpressing human S1P1 receptor
Please express pEC50 as -log10 of the molar concentration.

Below, each entry is followed by its recorded pEC50 result.
| compound | pEC50 |
| --- | --- |
| CCc1nn(C(C)C)c2ccc(COc3ccc4c(c3)OCC(CN3CCC(C(=O)O)CC3)=C4)cc12 [Example 14] | 7.92 |
| CC(C)n1nc(Cl)c2cc(COc3ccc4c(c3)OCC(CN3CC(CCl)(C(=O)O)C3)=C4)ccc21 [Example 8] | 8.20 |
| CC(C)n1nc(Cl)c2cc(COc3ccc4c(c3)OCC(CN3CCCC(C(=O)O)CC3)=C4)ccc21 (centres unmarked) [Example 15] | 8.20 |
| CC(C)n1nc(Cl)c2cc(COc3ccc4c(c3)OCC(CN3CCC[C@@H](C(=O)O)C3)=C4)ccc21 [Example 5] | 7.96 |

State its pEC50 for this compound: CC(C)n1nc(Cl)c2cc(COc3ccc4c(c3)OCC(CN3CCC(C(=O)O)CC3)=C4)ccc21 [Example 4]
8.04

* * *

Recorded pEC50, one value per entry.
Molecular target: human sphingosine-1-phosphate 1 receptor (S1P1 receptor) (Homo sapiens)
Assay: Ca2+ inducing ability (calcium increase, Calcium 5 assay kit) in CHO cells overexpressing human S1P1 receptor
Please express pEC50 as -log10 of the molar concentration.

| compoundSmiles | pEC50 |
| --- | --- |
| CCCn1nc2ccc(COc3ccc4c(c3)OCC(CN3CC(C(=O)O)C3)=C4)cc2c1Cl | 7.15 |
| CC1=C(CN2CCC(C(=O)O)CC2)COc2cc(OCc3ccc4c(c3)c(Cl)nn4C(C)C)ccc21 | 8.56 |
| CCCn1nc(Cl)c2cc(COc3ccc4c(c3)OCC(CN3CCC(C(=O)O)CC3)=C4)ccc21 | 7.68 |

State its pEC50 for this compound: CC(C)n1nc(Cl)c2cc(COc3ccc4c(c3)OCC(CN3CC[C@H](C(=O)O)C3)=C4)ccc21
8.24

State its pEC50 for this compound: CC(C)n1nc(Cl)c2cc(COc3ccc4c(c3)OCC(CN3CCC(C(=O)O)CC3)=C4Cl)ccc21
8.08

State its pEC50 for this compound: CC(C)n1nc(Cl)c2cc(COc3ccc4c(c3)OCC(CN3CC[C@@H](C(=O)O)C3)=C4)ccc21
7.84

Each recorded value in this set is attributed to patent US12479836B2.
